These measurements were taken from patent US5225528A.

Molecular target: uterine OT receptors (Rattus norvegicus)
Construct: from tissue; host or cells: uterus of DES-treated rats, crude membranes
Sequence (P70536 whole entry): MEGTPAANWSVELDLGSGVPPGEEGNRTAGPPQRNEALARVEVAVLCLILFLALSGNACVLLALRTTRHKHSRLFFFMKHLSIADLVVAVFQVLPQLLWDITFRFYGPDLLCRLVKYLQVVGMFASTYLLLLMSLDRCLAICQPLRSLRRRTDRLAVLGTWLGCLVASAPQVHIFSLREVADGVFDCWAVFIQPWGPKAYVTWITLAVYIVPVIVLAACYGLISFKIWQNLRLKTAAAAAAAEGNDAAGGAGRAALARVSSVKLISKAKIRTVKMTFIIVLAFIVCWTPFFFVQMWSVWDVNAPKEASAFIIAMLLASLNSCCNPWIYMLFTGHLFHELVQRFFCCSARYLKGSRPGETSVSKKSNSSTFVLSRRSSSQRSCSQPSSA
Test: [^3 H]OT binding to uterine OT receptors, crude membrane preparation of uteri from DES-treated rats
Conditions: rat uterus membranes, 1 nM [^3 H]OT; read-out: Receptor Binding Results IC50 (nM) [^3 H]OT
Numbered stars: 1 amine (or outer) side, 2 acyl side, 3 side chain; on linkers, the order of the positions; unused ones are H or OH. Square brackets hold non-standard residues; d marks the D form. Peptide text beside a SMILES is read from it. X8 = Cn1c[n+](C)cc1C[C@@H](N[*:1])C(=O)[*:2]; dPiz(1,6-dehydro) = O=C(O)[C@H]1CCC=NN1; dNMeH = CN[C@H](Cc1c[nH]cn1)C(=O)O; Pip(4-aza) = O=C(O)[C@@H]1CNCCN1; dNMeF = CN[C@H](Cc1ccccc1)C(=O)O; Pip = O=C(O)[C@@H]1CCCCN1; dPip = O=C(O)[C@H]1CCCCN1
Listing of recorded IC50 by entry.
Use nM as the unit, but write only the number.

# Molecule, Target Of Assay, IC50, nM
rows = [
    ("CC[C@H](C)[C@@H]1NC(=O)[C@@H](Cc2c[nH]c3ccccc23)NC(=O)[C@@H]2CCCN2C(=O)[C@@H](Cc2c[nH]cn2)N(C)C(=O)[C@@H]2CCCCN2C(=O)[C@H]2CCCCN2C1=O [Example 19] (cyclo(I[dPip][Pip][dNMeH]P[dW]))", "uterine OT receptors (Rattus norvegicus)", 18),
    ("CC[C@H](C)[C@@H]1NC(=O)[C@@H](Cc2ccccc2)NC(=O)[C@@H]2CCCN2C(=O)[C@@H](Cc2ccccc2)NC(=O)[C@@H]2CCCN2C(=O)[C@H]2CCCN2C1=O [Example 53] (cyclo([dF]P[dF]I[dP]P))", "uterine OT receptors (Rattus norvegicus)", 2600),
    ("CC[C@H](C)[C@@H]1NC(=O)[C@@H](Cc2c[nH]c3ccccc23)NC(=O)[C@@H]2CCCN2C(=O)[C@@H](Cc2c[n+](C)cn2C)NC(=O)[C@@H]2CCCCN2C(=O)[C@H]2CCCCN2C1=O [Example 18] (cyclo(I[dPip][Pip][X8]P[dW]))", "uterine OT receptors (Rattus norvegicus)", 450),
]

Please find the next molecule below.
Requested field: IC50. Item: CC[C@H](C)[C@@H]1NC(=O)[C@@H](Cc2c[nH]c3ccccc23)NC(=O)[C@@H]2CCCN2C(=O)[C@@H](Cc2ccccc2)N(C)C(=O)[C@@H]2CNCCN2C(=O)[C@H]2CCC=NN2C1=O [Example 170] (cyclo(I[dPiz(1,6-dehydro)][Pip(4-aza)][dNMeF]P[dW]))
3.1
